Recorded values, source patent US12479843B2.

Listing: inhibition at 1 µM of selected compounds
System: pERK level in H358 cells
MEASUREMENT_DESCRIPTION: pERK and ERK protein content assay in H358 cells (ELISA)
Assay type: cell-based
APPLIED_CONDITIONS: Homo sapiens, NCI-H358, compound 1 μM, 24 h, pERK/ERK ratio compared with DMSO group, read-out: Inhibition rate (%) of pERK level

CHEMICAL_STRING: C=CC(=O)N1CC2(CCN(c3nc(OC4CCN(CCOC)CC4)nc4c(OCC(F)(F)F)c(-c5c(C)ccc6[nH]ncc56)c(C)cc34)CC2)C1
TEST_SYSTEM: pERK level in H358 cells
inhibition at 1 µM: > 90%
--
CHEMICAL_STRING: C=CC(=O)N1CC2(CCN(c3nc(N4CC(N5CC(CO)C5)C4)nc4c(OCC(F)(F)F)c(-c5c(C)ccc6[nH]ncc56)c(C5CC5)cc34)CC2)C1
TEST_SYSTEM: pERK level in H358 cells
inhibition at 1 µM: > 90%
--
CHEMICAL_STRING: C=CC(=O)N1CC2(CCN(c3nc(N(C)CCN4CC(F)C4)nc4c(OCC(F)(F)F)c(-c5c(C)ccc6[nH]ncc56)c(C5CC5)cc34)CC2)C1
TEST_SYSTEM: pERK level in H358 cells
inhibition at 1 µM: > 90%
--
CHEMICAL_STRING: C=CC(=O)N1CC2(CCN(c3nc(N4CC(N5C[C@@H](F)[C@@H](F)C5)C4)nc4c(OCC(F)(F)F)c(-c5c(C)ccc6[nH]ncc56)c(C5CC5)cc34)CC2)C1
TEST_SYSTEM: pERK level in H358 cells
inhibition at 1 µM: > 90%
--
CHEMICAL_STRING: C=CC(=O)N1CC2(CCN(c3nc(OC4CCN(CCOC)CC4)nc4c(OCC(F)(F)F)c(-c5cc(O)ccc5F)c(C5CC5)cc34)CC2)C1
TEST_SYSTEM: pERK level in H358 cells
inhibition at 1 µM: > 90%
--
CHEMICAL_STRING: C=CC(=O)N1CC2(CCN(c3nc(OC4CCN(CCOC)CC4)nc4c(OCC(F)(F)F)c(-c5c(C)ccc6[nH]ncc56)c(F)cc34)CC2)C1
TEST_SYSTEM: pERK level in H358 cells
inhibition at 1 µM: > 90%
